# pIC50 annotations
System: FM3A
Procedure Text: Antiproliferative activity against mouse FM3A cells after 2 days by Coulter counter method
Assay type: functional, cell-based
Measurement Parameters: 48 h
# pIC50 = -log10(concentration in molar units)

CCOC(=O)c1sc(-c2ccccc2)cc1Nc1cc(OC)c(OC)c(OC)c1 : 6.01
COC(=O)c1sc(-c2ccc(OC)c(OC)c2)cc1Nc1cc(OC)c(OC)c(OC)c1 : 6.37
COC(=O)c1sc(-c2ccc(OC)cc2)cc1Nc1cc(OC)c(OC)c(OC)c1 : 6.60
COC(=O)c1sc(-c2ccc(Cl)cc2)cc1Nc1cc(OC)c(OC)c(OC)c1 : 6.06
COC(=O)c1sc(-c2ccc([N+](=O)[O-])cc2)cc1Nc1cc(OC)c(OC)c(OC)c1 : 6.03
COC(=O)c1sc(-c2ccc(Cl)c(Cl)c2)cc1Nc1cc(OC)c(OC)c(OC)c1 : 5.34
COC(=O)c1sc(-c2ccc(C(F)(F)F)cc2)cc1Nc1cc(OC)c(OC)c(OC)c1 : 5.96
COC(=O)c1sc(-c2ccccc2)cc1Nc1cc(OC)c(OC)c(OC)c1 : 6.68
COC(=O)c1sc(-c2ccc(C)cc2)cc1Nc1cc(OC)c(OC)c(OC)c1 : 6.74
CCOC(=O)c1sc(-c2ccc(OC)cc2)cc1Nc1cc(OC)c(OC)c(OC)c1 : 5.92

Exercise: Any idea what its pIC50 is? The compound is `CCOc1ccc(-c2cc(Nc3cc(OC)c(OC)c(OC)c3)c(C(=O)OC)s2)cc1`
Key: 5.24

Exercise: Requested field: pIC50. Item: `CCOC(=O)c1sc(-c2ccc(F)cc2)cc1Nc1cc(OC)c(OC)c(OC)c1`
Key: 6.00

Exercise: May I ask what pIC50 has been recorded for `COC(=O)c1sc(-c2ccc(F)cc2)cc1Nc1cc(OC)c(OC)c(OC)c1` ?
Key: 6.14

Exercise: Reported pIC50 for `COC(=O)c1sc(-c2cccs2)cc1Nc1cc(OC)c(OC)c(OC)c1` : what is it?
Key: 6.80

Exercise: Record request: pIC50 value, item `COC(=O)c1sc(-c2cccc(OC)c2)cc1Nc1cc(OC)c(OC)c(OC)c1`
Key: 6.00

Exercise: Quick one: pIC50 of `CCOC(=O)c1sc(-c2ccc(C)cc2)cc1Nc1cc(OC)c(OC)c(OC)c1` ?
Key: 6.09

Exercise: I have this compound here, `CCOC(=O)c1sc(-c2ccc(Cl)cc2)cc1Nc1cc(OC)c(OC)c(OC)c1` , and I need its recorded pIC50.
Key: 5.29

The measurements presented in this section are drawn from ChEMBL document CHEMBL4251588.
